Catalogue of pest or weed control at 560 ppm readings, one per entry.
tested on: Giant Foxtail (Setaria faberi); experiment: Preemergence herbicidal activity, Giant Foxtail; type: in vivo; conditions: pre-emergence, 504 h, rate 560 ppm, visual score after 3 weeks, 100 = complete kill or no germination, read-out: Pre-emergent % control SETFA
Quick reminder: number only, in %, skip the unit.

Some entries whose results are on file:
COCc1cc(N)c(Cl)c(C(=O)O)n1 10
C=Cc1cc(N)c(Cl)c(C(=O)OC)n1 0
C=CCc1cc(N)c(Cl)c(C(=O)O)n1 0

Consider now this further compound.
Record request: pest or weed control at 560 ppm value, item CSCc1cc(N)c(Cl)c(C(=O)O)n1
0
